assayed system: Signal peptidase I (Escherichia coli K-12)
experimental protocol: Inhibition of full length Escherichia coli His6-tagged LepB expressed in Escherichia coli C43(DE3) assessed as residual activity at 0.0005 uM using dabcyl-VEVGGTATAGAFSRPGLE-(EDANS) as substrate preincubated for 10 mins followed by substrate addition measured for 2 hrs by FRET assay relative to control
Activity overview
# output: bare number, implied unit %

CCCCCCc1ccc(-c2ccc(C(=O)N3CC(CN)C[C@H]3C(=O)N[C@H](C(=O)N[C@@H](C)C(=O)N[C@@H](CC(N)=O)C(=O)N[C@@H](C)B(O)O)[C@H](C)O)cc2)cc1 (some centres undefined)    88.8

Name the reported Activity value associated with the compound CCCCCCc1ccc(-c2ccc(C(=O)N3CC(CN)C[C@H]3C(=O)N[C@H](C(=O)N[C@@H](C)C(=O)N[C@@H](CC(N)=O)C(=O)N[C@@H](C)B3O[C@@H]4C[C@@H]5C[C@@H](C5(C)C)[C@]4(C)O3)[C@H](C)O)cc2)cc1 (some centres undefined)
99.3

Name the reported Activity value associated with the compound `CCCCCCc1ccc(-c2ccc(C(=O)N3CCC[C@H]3C(=O)N[C@H](C(=O)N[C@@H](C)C(=O)N[C@@H](CC(N)=O)C(=O)N[C@@H](C)B3O[C@@H]4C[C@@H]5C[C@@H](C5(C)C)[C@]4(C)O3)[C@H](C)O)cc2)cc1`
100

Name the reported Activity value associated with the compound `CCCCCCCCCC(=O)N1CCC[C@H]1C(=O)N[C@H](C(=O)N[C@@H](C)C(=O)N[C@@H](CC(N)=O)C(=O)N[C@@H](C)B1O[C@@H]2C[C@@H]3C[C@@H](C3(C)C)[C@]2(C)O1)[C@H](C)O`
82.6
